Origin of measurements: PubChem BioAssay (NCI)

- Tested on: CAKI-1 renal
- assay procedure: NCI-60 one-dose screen, 48 h (100 = growth as untreated, 0 = no growth, -100 = all killed)
- conditions: 10 µM unless noted
About 83,000 compounds went through this panel and 20% of them were active in at least one assay; those are over-represented in the sample as a whole.
Entries and their measured growth follow.
# unit: % | format: bare number

Below, 3 molecules whose answers are already recorded.
{"structure": "COc1cc(-c2nn(C(C)(C)C)cc2-c2ccnc(NCCCNS(=O)(=O)c3cccc(F)c3)n2)ccc1Cl", "target": "CAKI-1 renal", "reading unit": "%", "growth": 25.7}
{"structure": "CC1(C)CC[C@]2(C(=O)O)CC[C@]3(C)C(=CC[C@@H]4[C@@]5(C)CC/C(=N\\OCCC#N)C(C)(C)[C@@H]5CC[C@]43C)[C@@H]2C1", "target": "CAKI-1 renal", "reading unit": "%", "growth": 59.7}
{"structure": "CN(C)CCCOc1ccc2c(c1)CN(C(=O)c1cc(C(=O)N3Cc4cccc(F)c4C3)ccc1O)C2", "target": "CAKI-1 renal", "reading unit": "%", "growth": 95.8}

Pending molecule:
Report growth for COc1ccccc1-n1cc(C#N)c(N)c1C(=O)c1ccc(Br)cc1 please.
68.8

* * *

- System: MCF7 breast
- assay procedure: NCI-60 one-dose screen, 48 h
- conditions: 10 µM unless noted
The panel holds about 83,000 compounds, 20% with a hit somewhere; the sample as a whole holds those more often. Calls of active or inactive are those of the source. Rule for the calls: active = growth percent below 10; inactive = the rest.
Could you please pick one outcome from this set? active, inactive

{"compound": "CNC(=O)c1cc(Oc2ccc3nc(NC(=O)c4cc(N5CCOCC5)cc(C(F)(F)F)c4)sc3c2)ccn1", "class": "inactive"}
{"compound": "COc1ccc([C@H]2c3[nH]c4ccccc4c3C[C@H]3C(=O)N(C4CCN(Cc5c(Cl)cccc5Cl)CC4)CC(=O)N23)c(OC)c1", "class": "inactive"}
{"compound": "NC(N)=Nc1ccc(Nc2cccc(Oc3ccc(Cl)c(C(F)(F)F)c3)c2)cn1", "class": "active"}
{"compound": "CN(C)CCN(C)c1ccc2ncc(C#Cc3cncc(C(=O)Nc4ccc(CN5CCN(C)CC5)c(C(F)(F)F)c4)c3)n2n1", "class": "active"}
{"compound": "COc1c(N2CC3CCCNC3C2)c(F)cc2c(=O)c(C(=O)N/N=C/c3ccc(F)cc3)cn(C3CC3)c12 (configuration not stated)", "class": "inactive"}

Just curious, what result did O=C(Nc1ccc(Br)cc1)Nc1nc2ccc([N+](=O)[O-])cc2s1 get here?
active

Just curious, what result did N/C(=N\C(N)=N\c1nc2ccccc2s1)c1cccc(F)c1 get here?
inactive

Just curious, what result did CN1CCN(Cc2ccc(NC(=O)c3cncc(C#Cc4cnc5ccc(OCC6(C)COC6)nn45)c3)cc2C(F)(F)F)CC1 get here?
active

Just curious, what result did Nc1ncc(-c2ccc3ncnc(N4CCc5cc(F)c(Cl)cc54)c3c2)cn1 get here?
inactive

Just curious, what result did O=C1[C@H]2Cc3c([nH]c4ccccc34)[C@@H](c3c(Cl)cccc3Cl)N2C(=O)CN1C1CCN(CC2CCCCC2)CC1 get here?
inactive

Just curious, what result did CC(=O)N1N=C(c2cccc(-n3cccc3)c2)CC1c1cccc(F)c1 (configuration not stated) get here?
inactive
